Hey, just so you know, these numbers are from ChEMBL document CHEMBL3046350.

# assay target: 4-hydroxyphenylpyruvate dioxygenase (Arabidopsis thaliana, UniProt P93836)
# Sequence (P93836 whole entry): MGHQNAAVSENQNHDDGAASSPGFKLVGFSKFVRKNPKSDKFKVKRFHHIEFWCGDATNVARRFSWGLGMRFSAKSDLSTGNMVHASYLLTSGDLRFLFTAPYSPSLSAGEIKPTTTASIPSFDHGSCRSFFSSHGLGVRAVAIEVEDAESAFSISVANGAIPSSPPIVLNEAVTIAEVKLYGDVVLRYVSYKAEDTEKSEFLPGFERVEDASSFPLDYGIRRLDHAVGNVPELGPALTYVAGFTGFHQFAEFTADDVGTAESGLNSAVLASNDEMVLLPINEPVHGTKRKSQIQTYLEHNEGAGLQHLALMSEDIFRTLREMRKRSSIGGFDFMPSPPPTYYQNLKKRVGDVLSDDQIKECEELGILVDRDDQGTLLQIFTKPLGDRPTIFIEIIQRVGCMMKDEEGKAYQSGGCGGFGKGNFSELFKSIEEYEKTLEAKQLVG
pIC50: −log10 of the molar value.
Please use satisfied whenever pIC50 is not below 7, and not satisfied whenever it is.

{"columns": ["molecule smiles", "assay target", "answer label"],
 "data": [
  ["CSc1ccc(C(=O)/C(=N\\O)C(C)=O)c(C)c1Cl", "4-hydroxyphenylpyruvate dioxygenase (Arabidopsis thaliana, UniProt P93836)", "not satisfied"],
  ["CCOc1c(S(=O)(=O)CC)ccc(C(=O)c2c(C)nc(-c3cccn3C)n2O)c1Cl", "4-hydroxyphenylpyruvate dioxygenase (Arabidopsis thaliana, UniProt P93836)", "not satisfied"],
  ["CSc1ccc(C(=O)c2c(C)nc(C)n2O)c(C)c1Cl", "4-hydroxyphenylpyruvate dioxygenase (Arabidopsis thaliana, UniProt P93836)", "not satisfied"],
  ["Cc1cc(C)c(C(=O)c2c(C)nc(C)n2O)c(C)c1", "4-hydroxyphenylpyruvate dioxygenase (Arabidopsis thaliana, UniProt P93836)", "not satisfied"],
  ["CCOc1c(S(=O)(=O)CC)ccc(C(=O)c2c(C)nc(C(C)C)n2O)c1Cl", "4-hydroxyphenylpyruvate dioxygenase (Arabidopsis thaliana, UniProt P93836)", "satisfied"],
  ["CCOc1c(S(=O)(=O)CC)ccc(C(=O)/C(=N\\O)C(C)=O)c1Cl", "4-hydroxyphenylpyruvate dioxygenase (Arabidopsis thaliana, UniProt P93836)", "not satisfied"],
  ["CCOc1c(S(=O)(=O)CC)ccc(C(=O)c2c(C)nc(C)n2O)c1Cl", "4-hydroxyphenylpyruvate dioxygenase (Arabidopsis thaliana, UniProt P93836)", "satisfied"],
  ["COc1c(S(C)(=O)=O)ccc(C(=O)/C(=N\\O)C(C)=O)c1C", "4-hydroxyphenylpyruvate dioxygenase (Arabidopsis thaliana, UniProt P93836)", "not satisfied"],
  ["COc1c(S(C)(=O)=O)ccc(C(=O)c2c(C)nc(C)n2O)c1C", "4-hydroxyphenylpyruvate dioxygenase (Arabidopsis thaliana, UniProt P93836)", "not satisfied"],
  ["CCOc1c(S(=O)(=O)CC)ccc(C(=O)c2c(C)[n+]([O-])c(C)n2O)c1Cl", "4-hydroxyphenylpyruvate dioxygenase (Arabidopsis thaliana, UniProt P93836)", "not satisfied"]
]}

====

# assay target: 4-hydroxyphenylpyruvate dioxygenase (Arabidopsis thaliana, UniProt P93836)
Entries and their log10(IC50)
test readout: log10(IC50) (log10 of the value in µM)

{"columns": ["molecule smiles", "endpoint result"],
 "data": [
  ["CCOc1c(S(=O)(=O)CC)ccc(C(=O)c2c(C)nc(CC)n2O)c1Cl", -1.15],
  ["Cc1[nH]n(C)c(=O)c1C(=O)c1ccc(S(C)(=O)=O)c(C2=NOCC2)c1Cl", -0.72],
  ["CC(=O)/C(=N/O)C(=O)c1ccc(S(C)(=O)=O)c(C2=NOCC2)c1Cl", 1.11],
  ["Cc1nc(C)n(O)c1C(=O)c1ccc(S(C)(=O)=O)c(C2=NOCC2)c1Cl", -1.44],
  ["CCOc1c(S(=O)(=O)CC)ccc(C(=O)c2c(C)ncn2O)c1Cl", 1.30]
]}
